Taken from ChEMBL document CHEMBL6120980.

TEST_TARGET: Cytochrome P450 2C9 (Homo sapiens, UniProt P11712)
Sequence (P11712 whole entry): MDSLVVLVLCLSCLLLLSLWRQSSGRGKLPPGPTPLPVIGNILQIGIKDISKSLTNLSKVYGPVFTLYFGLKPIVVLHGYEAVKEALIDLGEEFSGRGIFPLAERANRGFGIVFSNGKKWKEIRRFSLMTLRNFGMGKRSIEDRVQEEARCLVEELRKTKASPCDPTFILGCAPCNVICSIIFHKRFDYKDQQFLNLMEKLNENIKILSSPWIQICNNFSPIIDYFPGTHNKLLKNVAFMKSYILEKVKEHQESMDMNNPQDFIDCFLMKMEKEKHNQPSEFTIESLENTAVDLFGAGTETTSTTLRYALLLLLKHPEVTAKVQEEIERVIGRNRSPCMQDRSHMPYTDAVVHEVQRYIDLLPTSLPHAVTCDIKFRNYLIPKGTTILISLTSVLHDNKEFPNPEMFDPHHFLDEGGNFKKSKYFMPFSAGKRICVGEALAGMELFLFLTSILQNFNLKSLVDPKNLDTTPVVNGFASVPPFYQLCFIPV
PARAMETER: IC50

For reference, reported IC50 for COc1c(F)c(F)cc(-c2c(C(=O)O)sc3cc(F)ccc23)c1F stands at 1000 nM

====

TEST_TARGET: Solute carrier family 22 member 2 (Homo sapiens, UniProt O15244)
Sequence (O15244 whole entry): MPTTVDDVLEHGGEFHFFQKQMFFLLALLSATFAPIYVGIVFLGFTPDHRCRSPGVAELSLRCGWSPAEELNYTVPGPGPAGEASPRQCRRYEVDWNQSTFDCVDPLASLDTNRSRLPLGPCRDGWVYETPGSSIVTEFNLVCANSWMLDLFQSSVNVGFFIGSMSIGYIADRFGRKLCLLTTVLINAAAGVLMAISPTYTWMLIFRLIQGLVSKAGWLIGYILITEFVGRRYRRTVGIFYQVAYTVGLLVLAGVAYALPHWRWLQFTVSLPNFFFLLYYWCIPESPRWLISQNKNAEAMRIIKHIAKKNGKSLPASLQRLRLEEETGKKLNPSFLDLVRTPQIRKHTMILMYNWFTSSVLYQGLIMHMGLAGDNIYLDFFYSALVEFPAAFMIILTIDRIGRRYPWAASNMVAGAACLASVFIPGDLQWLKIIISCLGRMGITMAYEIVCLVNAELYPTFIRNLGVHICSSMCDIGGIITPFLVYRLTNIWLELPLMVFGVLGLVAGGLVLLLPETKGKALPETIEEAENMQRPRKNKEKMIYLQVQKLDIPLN
EXPERIMENTAL_PROTOCOL: Inhibition of human OCT2 expressed in HEK293 cells using [14C]metformin as substrate preincubated for 30 mins followed by substrate addition and measured after 1 to 4 mins
PARAMETER: IC50

For reference, reported IC50 for COc1c(F)c(F)cc(-c2c(C(=O)O)sc3cc(F)ccc23)c1F stands at > 80 µM

====

TEST_TARGET: Multidrug and toxin extrusion protein 2 (Homo sapiens)
Sequence (Q86VL8 whole entry): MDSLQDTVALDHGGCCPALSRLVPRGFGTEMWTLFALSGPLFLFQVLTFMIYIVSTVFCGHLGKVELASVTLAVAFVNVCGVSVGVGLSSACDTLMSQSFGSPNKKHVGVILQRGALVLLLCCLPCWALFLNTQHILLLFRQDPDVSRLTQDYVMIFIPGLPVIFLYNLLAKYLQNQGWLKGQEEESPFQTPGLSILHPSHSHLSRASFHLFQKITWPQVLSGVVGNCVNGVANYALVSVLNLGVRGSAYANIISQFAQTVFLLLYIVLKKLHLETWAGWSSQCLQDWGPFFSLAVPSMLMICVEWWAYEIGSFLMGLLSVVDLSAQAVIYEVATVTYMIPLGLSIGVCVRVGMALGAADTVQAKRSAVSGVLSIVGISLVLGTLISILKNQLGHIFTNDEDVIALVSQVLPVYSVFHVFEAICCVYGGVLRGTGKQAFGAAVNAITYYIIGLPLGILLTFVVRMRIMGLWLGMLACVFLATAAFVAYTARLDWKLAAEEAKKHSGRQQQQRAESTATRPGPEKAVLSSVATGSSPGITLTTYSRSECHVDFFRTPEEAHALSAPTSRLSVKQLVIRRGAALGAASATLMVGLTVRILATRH
EXPERIMENTAL_PROTOCOL: Inhibition of human MATE2K expressed in HEK293 cells using [14C]metformin as substrate preincubated for 30 mins followed by substrate addition and measured after 1 to 4 mins
PARAMETER: IC50

For reference, reported IC50 for COc1c(F)c(F)cc(-c2c(C(=O)O)sc3cc(F)ccc23)c1F stands at > 80 µM

====

TEST_TARGET: Cytochrome P450 2D6 (Homo sapiens)
Sequence (P10635 whole entry): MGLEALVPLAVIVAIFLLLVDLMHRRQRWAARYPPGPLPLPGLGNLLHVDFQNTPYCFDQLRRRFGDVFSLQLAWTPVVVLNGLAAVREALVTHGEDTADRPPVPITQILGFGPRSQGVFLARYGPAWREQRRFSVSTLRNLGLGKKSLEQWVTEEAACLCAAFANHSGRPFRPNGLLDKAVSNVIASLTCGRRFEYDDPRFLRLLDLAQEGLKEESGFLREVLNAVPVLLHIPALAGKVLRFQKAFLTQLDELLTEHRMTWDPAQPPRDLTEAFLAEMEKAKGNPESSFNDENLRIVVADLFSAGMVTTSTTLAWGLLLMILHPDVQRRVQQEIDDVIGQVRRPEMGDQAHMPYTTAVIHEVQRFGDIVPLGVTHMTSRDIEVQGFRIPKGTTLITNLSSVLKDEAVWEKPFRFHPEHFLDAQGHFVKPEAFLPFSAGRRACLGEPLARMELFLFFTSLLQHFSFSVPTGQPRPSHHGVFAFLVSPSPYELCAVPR
pIC50: −log10 of the molar value.
PARAMETER: pIC50

For reference, reported pIC50 for COc1c(F)c(F)cc(-c2c(C(=O)O)sc3cc(F)ccc23)c1F stands at < 4.00

====

TEST_TARGET: Cytochrome P450 3A4 (Homo sapiens)
Sequence (P08684 whole entry): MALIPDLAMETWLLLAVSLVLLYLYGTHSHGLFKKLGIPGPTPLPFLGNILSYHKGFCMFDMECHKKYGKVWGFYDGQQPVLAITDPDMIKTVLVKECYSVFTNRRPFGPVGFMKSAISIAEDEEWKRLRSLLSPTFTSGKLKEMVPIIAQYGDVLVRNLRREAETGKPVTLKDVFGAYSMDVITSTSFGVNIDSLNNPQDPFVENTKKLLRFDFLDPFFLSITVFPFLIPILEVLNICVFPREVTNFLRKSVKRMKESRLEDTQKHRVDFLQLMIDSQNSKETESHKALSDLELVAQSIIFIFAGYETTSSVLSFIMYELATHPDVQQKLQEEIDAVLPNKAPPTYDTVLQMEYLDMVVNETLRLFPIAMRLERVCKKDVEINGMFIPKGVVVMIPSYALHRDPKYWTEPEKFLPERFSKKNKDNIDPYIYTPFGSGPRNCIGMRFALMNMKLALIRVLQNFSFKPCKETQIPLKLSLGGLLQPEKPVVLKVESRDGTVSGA
EXPERIMENTAL_PROTOCOL: Reversible inhibition of human CYP3A4-mediated midazolam-1'-hydroxylation in human liver microsomes using midazolam as substrate in presence of NADPH
Format: ADME, Microsome
PARAMETER: IC50

For reference, reported IC50 for COc1c(F)c(F)cc(-c2c(C(=O)O)sc3cc(F)ccc23)c1F stands at > 100 µM

====

TEST_TARGET: Multidrug and toxin extrusion protein 1 (Homo sapiens)
Sequence (Q96FL8 whole entry): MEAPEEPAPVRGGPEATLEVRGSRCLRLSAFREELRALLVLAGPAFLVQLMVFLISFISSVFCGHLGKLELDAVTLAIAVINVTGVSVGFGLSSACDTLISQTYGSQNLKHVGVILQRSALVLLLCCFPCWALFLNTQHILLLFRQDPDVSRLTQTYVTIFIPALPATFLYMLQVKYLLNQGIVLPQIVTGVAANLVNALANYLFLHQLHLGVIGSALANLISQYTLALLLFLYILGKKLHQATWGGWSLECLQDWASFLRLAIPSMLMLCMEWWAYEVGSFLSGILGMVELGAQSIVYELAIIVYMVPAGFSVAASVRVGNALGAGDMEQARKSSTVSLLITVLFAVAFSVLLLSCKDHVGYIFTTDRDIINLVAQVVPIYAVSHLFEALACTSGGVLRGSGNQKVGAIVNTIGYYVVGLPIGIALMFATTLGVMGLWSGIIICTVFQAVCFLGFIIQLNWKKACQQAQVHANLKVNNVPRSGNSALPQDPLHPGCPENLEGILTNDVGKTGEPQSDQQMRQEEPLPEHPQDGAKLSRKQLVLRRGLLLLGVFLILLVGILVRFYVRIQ
EXPERIMENTAL_PROTOCOL: Inhibition of human MATE1 expressed in HEK293 cells using [14C]metformin as substrate preincubated for 30 mins followed by substrate addition and measured after 1 to 4 mins
PARAMETER: IC50

For reference, reported IC50 for COc1c(F)c(F)cc(-c2c(C(=O)O)sc3cc(F)ccc23)c1F stands at > 80 µM

====

EXPERIMENTAL_PROTOCOL: physchem
PARTICULARS: octanol/water
PARAMETER: logD
Answers are plain numbers.

Below, each entry is followed by its recorded logD result.
O=C(O)c1sc2cc(F)ccc2c1-c1ccccc1 :: 1.1
O=C(O)c1sc2cc(F)ccc2c1-c1cc(F)c(F)cc1F :: 1.3
O=C(O)c1sc2cc(F)sc2c1Cl :: 0.1
COc1c(F)ccc(-c2c(C(=O)O)sc3cc(F)ccc23)c1F :: 1.1
COc1c(F)cc(F)c(-c2c(C(=O)O)sc3cc(F)ccc23)c1F :: 1
O=C(O)c1sc2cc(F)ccc2c1Cl :: 0.5

Each of the following entries comes with a recorded value; kindly state logD for each.
1. O=C(O)c1sc2cc(Cl)ccc2c1Cl
2. COc1cccc(-c2c(C(=O)O)sc3cc(F)ccc23)c1
3. Cc1c(F)c(F)cc(-c2c(C(=O)O)sc3cc(F)ccc23)c1F

Completion:
0.7
1.4
1.6

Each of the following entries comes with a recorded value; kindly state logD for each.
1. COc1cccc(-c2c(C(=O)O)sc3cc(F)ccc23)c1F
2. CCOc1c(F)ccc(-c2c(C(=O)O)sc3cc(F)ccc23)c1F
3. CCc1c(F)c(F)cc(-c2c(C(=O)O)sc3cc(F)ccc23)c1F

Completion:
1: 1; 2: 1.5; 3: 2.2

====

EXPERIMENTAL_PROTOCOL: in vitro
PARTICULARS: dog, MDCK
Decision: Papp A→B >= 20 ×10⁻⁶ cm/s yields Y, all other cases yield N.

COc1c(F)ccc(-c2c(C(=O)O)sc3cc(F)ccc23)c1F :: Y

Prompt: Given the entry O=C(O)c1sc2cc(F)sc2c1Cl , answer whether its Papp A→B meets or surpasses 20 ×10⁻⁶ cm/s.
Completion: N

Prompt: Given the entry O=C(O)c1sc2cc(F)ccc2c1-c1cc(F)c(F)cc1F , answer whether its Papp A→B meets or surpasses 20 ×10⁻⁶ cm/s.
Completion: N

Prompt: Given the entry COc1cccc(-c2c(C(=O)O)sc3cc(F)ccc23)c1 , answer whether its Papp A→B meets or surpasses 20 ×10⁻⁶ cm/s.
Completion: N

Prompt: Given the entry O=C(O)c1sc2cc(Cl)ccc2c1Cl , answer whether its Papp A→B meets or surpasses 20 ×10⁻⁶ cm/s.
Completion: Y

Prompt: Given the entry CCc1c(F)c(F)cc(-c2c(C(=O)O)sc3cc(F)ccc23)c1F , answer whether its Papp A→B meets or surpasses 20 ×10⁻⁶ cm/s.
Completion: N

====

EXPERIMENTAL_PROTOCOL: Drug degradation in phosphate/D2O buffer at pH 7.6 assessed as half-life by H1-NMR analysis
Assay type: ADME
PARAMETER: half-life

For reference, reported half-life for COc1c(F)c(F)cc(-c2c(C(=O)OC3O[C@H](C(=O)O)[C@@H](O)[C@H](O)[C@H]3O)sc3cc(F)ccc23)c1F (stereo partly specified) stands at ~1.37 h

====

TEST_TARGET: UniProt P20815
Sequence (P20815 whole entry): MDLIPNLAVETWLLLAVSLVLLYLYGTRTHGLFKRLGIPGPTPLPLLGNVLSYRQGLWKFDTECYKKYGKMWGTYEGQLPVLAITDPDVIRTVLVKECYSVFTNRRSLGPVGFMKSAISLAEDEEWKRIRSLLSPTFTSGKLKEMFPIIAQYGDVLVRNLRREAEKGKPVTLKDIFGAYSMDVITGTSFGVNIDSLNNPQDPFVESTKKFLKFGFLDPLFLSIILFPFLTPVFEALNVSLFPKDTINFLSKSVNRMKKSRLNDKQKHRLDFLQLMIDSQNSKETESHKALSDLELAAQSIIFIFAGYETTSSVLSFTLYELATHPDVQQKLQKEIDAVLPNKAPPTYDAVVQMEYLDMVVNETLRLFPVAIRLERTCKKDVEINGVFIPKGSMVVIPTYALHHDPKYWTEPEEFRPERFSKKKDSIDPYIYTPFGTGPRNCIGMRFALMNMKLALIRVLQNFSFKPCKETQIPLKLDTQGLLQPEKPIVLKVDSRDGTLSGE
PARAMETER: IC50

For reference, reported IC50 for COc1c(F)c(F)cc(-c2c(C(=O)O)sc3cc(F)ccc23)c1F stands at > 100 µM

====

Record form. Attribute: CLH(app). Fill in for each entry.
PARTICULARS: human, hepatocytes, 4 h, 1 µM
Give bare numbers, in µL/min.

Below, each entry is followed by its recorded CLH(app) result.
COc1c(F)cc(F)c(-c2c(C(=O)O)sc3cc(F)ccc23)c1F :: 21
CCOc1c(F)ccc(-c2c(C(=O)O)sc3cc(F)ccc23)c1F :: 43
COc1cccc(-c2c(C(=O)O)sc3cc(F)ccc23)c1F :: 23
O=C(O)c1sc2cc(F)ccc2c1-c1cc(F)c(F)cc1F :: 23
COc1c(F)ccc(-c2c(C(=O)O)sc3cc(F)ccc23)c1F :: 26

Each of the following entries comes with a recorded value; kindly state CLH(app) for each.
1. O=C(O)c1sc2cc(Cl)ccc2c1Cl
2. O=C(O)c1sc2cc(F)ccc2c1-c1ccccc1
3. COc1cccc(-c2c(C(=O)O)sc3cc(F)ccc23)c1
4. CCc1c(F)c(F)cc(-c2c(C(=O)O)sc3cc(F)ccc23)c1F

Completion:
[5.2, 31, 32, 52]
